# assay.procedure: Clearance in male C57 mouse at 5 mg/kg, po measured upto 24 hrs
# Assay type: ADME, organism-based
# condition.set: male, C57, mouse, in vivo
readout: CL/F (mL/min/kg)

[
  {
    "record.smiles": "CC(=O)OC[C@H]1O[C@@H](OC2=C(C)OC(=C(C)C)C2=O)[C@H](OC(C)=O)[C@@H](OC(C)=O)[C@@H]1OC(C)=O",
    "result.unit": "mL/min/kg",
    "measured.result": 915
  }
]

---

# assay.procedure: Toxicity in female Kunming mouse assessed as lethal dose administered as po measured after 5 weeks
# Assay type: organism-based
# condition.set: in vivo
readout: LD50 at 840 h

[
  {
    "record.smiles": "CC(=O)OC[C@H]1O[C@@H](OC2=C(C)OC(=C(C)C)C2=O)[C@H](OC(C)=O)[C@@H](OC(C)=O)[C@@H]1OC(C)=O",
    "measured.result": "> 500 mg/kg"
  }
]

---

# assay.procedure: Selectivity ratio of CC50 for cytotoxicity against mouse Splenocyte to IC50 for immunosuppressive activity in mouse T-lymphocyte
# Type: toxicity
# condition.set: splenocytes (CC50) and T-lymphocytes (IC50)

[
  {
    "record.smiles": "CC(=O)OC[C@H]1O[C@@H](OC2=C(C)OC(=C3CCCCC3)C2=O)[C@H](OC(C)=O)[C@@H](OC(C)=O)[C@@H]1OC(C)=O",
    "selectivity ratio": 0.92
  },
  {
    "record.smiles": "CC(C)=C1OC(C)=C(O[C@@H]2O[C@H](CO)[C@@H](O)[C@H](O)[C@H]2O)C1=O",
    "selectivity ratio": 0.63
  },
  {
    "record.smiles": "CC(=O)OC[C@H]1O[C@@H](OC2=C(C)OC(=C(C)C)C2=O)[C@H](OC(C)=O)[C@@H](OC(C)=O)[C@@H]1OC(C)=O",
    "selectivity ratio": 1.44
  },
  {
    "record.smiles": "CC(=O)OC[C@H]1O[C@@H](OC2=C(C)OC(=C3CCOCC3)C2=O)[C@H](OC(C)=O)[C@@H](OC(C)=O)[C@@H]1OC(C)=O",
    "selectivity ratio": 1.87
  },
  {
    "record.smiles": "CC(=O)OC[C@H]1O[C@@H](OC2=C(C)OC(=C(C)C)C2=O)[C@H](OC(C)=O)[C@@H](OC(C)=O)[C@H]1OC(C)=O",
    "selectivity ratio": 1.06
  },
  {
    "record.smiles": "CC(C)=C1OC(C)=C(O)C1=O",
    "selectivity ratio": 1.82
  },
  {
    "record.smiles": "CC(=O)OC[C@H]1O[C@@H](OC2=C(C)OC(=C3CCCC3)C2=O)[C@H](OC(C)=O)[C@@H](OC(C)=O)[C@@H]1OC(C)=O",
    "selectivity ratio": 1.83
  },
  {
    "record.smiles": "CC(=O)OC[C@H]1O[C@@H](OC2=C(C)OC(=C3CCNCC3)C2=O)[C@H](OC(C)=O)[C@@H](OC(C)=O)[C@@H]1OC(C)=O",
    "selectivity ratio": 0.8
  },
  {
    "record.smiles": "CC(=O)OC[C@H]1O[C@@H](OC2=C(C)OC(=C3CCN(C(C)=O)CC3)C2=O)[C@H](OC(C)=O)[C@@H](OC(C)=O)[C@@H]1OC(C)=O",
    "selectivity ratio": 1.23
  }
]

Origin of the recorded values: ChEMBL document CHEMBL6120946
